molecular target: human c-KIT (Thr544-Val976) (Homo sapiens); construct: human c-KIT (Thr544-Val976); GST (N); purchased Cell Signaling Technology; host or cells: baculovirus expression system; assay: c-KIT kinase assay (HTScan kit, DELFIA); type: biochemical; settings: compound at 1 μM; read-out: c-KIT 1 μM, % of inhibition relative to control
Sequence (P10721 544-976): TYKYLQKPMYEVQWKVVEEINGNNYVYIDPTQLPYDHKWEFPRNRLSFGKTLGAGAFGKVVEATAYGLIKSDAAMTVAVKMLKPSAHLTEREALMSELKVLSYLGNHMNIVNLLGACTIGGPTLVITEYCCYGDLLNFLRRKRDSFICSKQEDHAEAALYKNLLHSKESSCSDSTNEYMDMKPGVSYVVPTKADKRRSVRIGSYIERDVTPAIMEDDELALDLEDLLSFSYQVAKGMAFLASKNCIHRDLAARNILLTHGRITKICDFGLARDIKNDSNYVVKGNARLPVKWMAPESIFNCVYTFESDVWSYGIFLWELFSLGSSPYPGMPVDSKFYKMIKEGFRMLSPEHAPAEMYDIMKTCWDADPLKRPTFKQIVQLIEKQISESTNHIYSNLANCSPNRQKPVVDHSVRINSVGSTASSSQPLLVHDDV
Assign yes (1) to entries whose inhibition at 1 µM meets or exceeds 30%; assign no (0) to the rest.

Is inhibition at 1 µM at least 30%? Consider `COc1ccc2c(c1)NC(=O)/C2=C/c1ccc2cccccc1-2`
no (0)

Likewise for `Cc1cc(/C=C2/C(=O)Nc3ccccc32)c2c(C)ccc(C(C)C)cc1-2` ?
no (0)

Same read-out for `O=C1C(=Cc2ccc3cccccc2-3)c2ccccc2N1Cc1ccccc1` ?
no (0)

Now consider `CC(C)c1cc(C=C2C(=O)Nc3ccc(F)cc32)c2cccccc1-2` and answer again.
yes (1)

Next molecule: `Cc1[nH]c(/C=C2\C(=O)Nc3ccc(F)cc32)c2ccc(=O)ccc12`
yes (1)

One more molecule: `Cc1cc(C=C2C(=O)Nc3c(F)cccc32)c2ccccc(OCCCN(C)C)c1-2`
yes (1)

// same read-out, input: `Cc1cc(/C=C2/C(=O)N(C(c3ccccc3)c3ccccc3)c3ccccc32)c2c(C)ccc(C(C)C)cc1-2`
yes (1)
